Test target: cdHDAC4wt (catalytic domain of human wild type histone deacetylase 4) (Homo sapiens, UniProt P56524)
Sequence (P56524 648-1057): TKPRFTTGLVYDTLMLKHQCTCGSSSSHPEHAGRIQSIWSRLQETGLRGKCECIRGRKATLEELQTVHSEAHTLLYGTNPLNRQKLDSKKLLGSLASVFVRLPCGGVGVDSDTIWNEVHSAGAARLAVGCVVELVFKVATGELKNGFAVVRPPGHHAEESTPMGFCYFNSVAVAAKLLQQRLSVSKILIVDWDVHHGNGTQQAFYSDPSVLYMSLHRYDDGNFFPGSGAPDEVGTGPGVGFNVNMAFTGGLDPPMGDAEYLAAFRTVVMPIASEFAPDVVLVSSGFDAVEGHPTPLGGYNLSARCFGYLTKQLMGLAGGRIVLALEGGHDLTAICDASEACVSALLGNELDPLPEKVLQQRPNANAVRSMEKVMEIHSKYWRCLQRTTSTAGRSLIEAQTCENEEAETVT
Measurement kind: IC50 (nM)
One number for each entry, in nM.

Need IC50 for each of these compounds.
1. O=C1NC(=O)/C(=C/c2ccc3cc(OCC(=O)N4N=C(c5ccccc5)CC4c4ccccc4F)ccc3c2)S1 (centres unmarked)
2. O=C1NC(=O)/C(=C/c2ccc3cc(OCC(=O)N4N=C(c5ccccc5)CC4c4ccccc4)ccc3c2)S1 (centres unmarked)
3. Cc1ccc(C2CC(c3ccccc3)=NN2C(=O)COc2ccc3cc(/C=C4\SC(=O)NC4=O)ccc3c2)cc1 (centres unmarked)
4. O=C1NC(=O)/C(=C/c2ccc3cc(OCC(=O)N4N=C(c5ccccc5)CC4c4cccs4)ccc3c2)S1 (centres unmarked)

1: 330; 2: 770; 3: 760; 4: 340

====

Test target: cdHDAC4wt (Homo sapiens, UniProt P56524)
Construct: consists of 410 amino acids (human HDAC4 T648-T1057) and has a molecular weight of 44.2 kDa; His6-SUMO (cleaved yes); made in house; host or cells: E. coli (BL21) DE3 pLysS, pET14b vector
Sequence (P56524 648-1057): as above
Protocol notes: Reversibility assay via rapid dilution; residence time from reversibility data
Assay type: biochemical
Experimental conditions: first order dissociation assumed; read-out: RT (RD), residence time from rapid dilution
Class 1.0: residence time at least 20 min. Class 0.0: residence time below 20 min.

# count of solved cases: 6
O=C1NC(=O)/C(=C/c2ccc3cc(OCC(=O)N4N=C(c5ccccc5)CC4c4ccccc4F)ccc3c2)S1 (stereo not drawn) [8b]	1.0
O=C1NC(=O)/C(=C/c2ccc3cc(OCC(=O)N4N=C(c5ccccc5)CC4c4ccccc4)ccc3c2)S1 (stereo not drawn) [8a]	0.0
O=C(COc1ccc2cc(/C=C3\SC(=O)NC3=O)ccc2c1)Nc1ncccc1F [7s]	0.0
O=C1NC(=O)/C(=C/c2ccc3cc(OCC(=O)N4N=C(c5ccccc5)CC4c4ccco4)ccc3c2)S1 (stereo not drawn) [8c]	0.0
O=C1NC(=O)/C(=C/c2ccc(OCC(=O)N3N=C(c4ccccc4)CC3c3ccc(C(F)(F)F)cc3)cc2)S1 (stereo not drawn) [4d]	1.0
O=C1NC(=O)/C(=C/c2ccc(OCC(=O)N3N=C(c4ccc(F)cc4)CC3c3ccc(Cl)c(Cl)c3)cc2)S1 (stereo not drawn) [12j]	0.0

Exam item: decide whether the reported residence time for O=C(COc1ccc2cc(/C=C3\SC(=O)NC3=O)ccc2c1)Nc1ccc(C(F)(F)F)cc1 [7i] is at least 20 min.
0.0

Exam item: decide whether the reported residence time for O=C1NC(=O)/C(=C/c2ccc3cc(OCC(=O)N4N=C(c5ccc(F)cc5)CC4c4ccco4)ccc3c2)S1 (stereo not drawn) [16c] is at least 20 min.
1.0

====

Can you tell me melting point for the items I'm about to list?

Some compounds with known melting point results, for comparison:
Cc1cc2nc(NC(=O)CN3C(=O)SC(=Cc4ccc(F)cc4)C3=O)sc2cc1C	298 to 299 °C
Cc1ccc2nc(NC(=O)CN3C(=O)SC(=Cc4ccc(Br)cc4)C3=O)sc2c1	292 to 294 °C
Cc1cc2nc(NC(=O)CN3C(=O)SC(=Cc4ccccc4)C3=O)sc2cc1C	276 to 278 °C
COc1cccc2sc(NC(=O)CN3C(=O)SC(=Cc4ccccc4)C3=O)nc12	157 to 159 °C
COc1cccc2sc(NC(=O)CN3C(=O)SC(=Cc4ccccn4)C3=O)nc12	220 to 222 °C

Need melting point for each of these compounds.
1. O=C(CN1C(=O)SC(=Cc2ccc(Cl)cc2)C1=O)Nc1nc2ccc(F)cc2s1
2. Cc1cccc2sc(NC(=O)CN3C(=O)SC(=Cc4ccccn4)C3=O)nc12
3. COc1cccc2sc(NC(=O)CN3C(=O)SC(=Cc4ccc(F)cc4)C3=O)nc12
4. Cc1cc2nc(NC(=O)CN3C(=O)SC(=Cc4ccccn4)C3=O)sc2cc1C

1: 290 to 292 °C; 2: 260 °C (dec.); 3: 172 °C; 4: 295 °C (dec.)

====

Can you tell me melting point for the items I'm about to list?

Cc1cccc2sc(NC(=O)CN3C(=O)SC(=Cc4ccc(F)cc4)C3=O)nc12	225 to 227 °C
O=C(CN1C(=O)SC(=Cc2ccccc2)C1=O)Nc1nc2c(F)cccc2s1	272 to 274 °C
O=C(CN1C(=O)SC(=Cc2ccccn2)C1=O)Nc1nc2ccc(F)cc2s1	265 °C (dec.)
O=C(CN1C(=O)SC(=Cc2ccccn2)C1=O)Nc1nc2c(Cl)cccc2s1	273 °C (dec.)
O=C(CN1C(=O)SC(=Cc2ccc(F)cc2F)C1=O)Nc1nc2c(F)cc(F)cc2s1	274 to 276 °C

Need melting point for each of these compounds.
1. Cc1ccc(C=C2SC(=O)N(CC(=O)Nc3nc4c(F)cc(F)cc4s3)C2=O)cc1C
2. Cc1ccc(C=C2SC(=O)N(CC(=O)Nc3nc4cc(C)c(C)cc4s3)C2=O)cc1C
3. O=C(CN1C(=O)SC(=Cc2ccc(F)cc2)C1=O)Nc1nc2ccc(F)cc2s1
4. Cc1ccc2nc(NC(=O)CN3C(=O)SC(=Cc4ccc(F)cc4F)C3=O)sc2c1
5. O=C(CN1C(=O)SC(=Cc2ccccc2)C1=O)Nc1nc2c(F)cc(F)cc2s1

1. 271 to 273 °C
2. 284 to 286 °C
3. 260 to 262 °C
4. 266 to 268 °C
5. 280 to 282 °C

====

Test target: cdHDAC4wt (Homo sapiens, UniProt P56524)
Construct: consists of 410 amino acids (human HDAC4 T648-T1057) and has a molecular weight of 44.2 kDa; His6-SUMO (cleaved yes); made in house; host or cells: E. coli (BL21) DE3 pLysS, pET14b vector
Protocol notes: Association kinetics (semi continuous enzyme activity assay, kobs vs inhibitor concentration)
Assay type: biochemical
Experimental conditions: isomerization rate, two step model, y-axis intercept
Measurement kind: koff (s⁻¹)
Numbers only, in s⁻¹.

Some molecules with known koff results, for comparison:
O=C1NC(=O)/C(=C/c2ccc3cc(OCC(=O)N4N=C(c5ccccc5)CC4c4ccco4)ccc3c2)S1 (stereo not shown)	0.0014
O=C1NC(=O)/C(=C/c2ccc3cc(OCC(=O)N4N=C(c5ccccc5)CC4c4ccccc4)ccc3c2)S1 (stereo not shown)	0.0015
O=C1NC(=O)/C(=C/c2ccc(OCC(=O)N3N=C(c4ccccc4)CC3c3ccc(C(F)(F)F)cc3)cc2)S1 (stereo not shown)	0.0006
O=C1NC(=O)/C(=C/c2ccc(OCC(=O)N3N=C(c4ccc(F)cc4)CC3c3ccc(Cl)c(Cl)c3)cc2)S1 (stereo not shown) [12j]	0.0018
O=C1NC(=O)/C(=C/c2ccc3cc(OCC(=O)N4N=C(c5ccccc5)CC4c4ccccc4F)ccc3c2)S1 (stereo not shown)	0.0015

Need koff for each of these molecules.
1. O=C1NC(=O)/C(=C/c2ccc3cc(OCC(=O)N4N=C(c5ccccc5)CC4c4cccs4)ccc3c2)S1 (stereo not shown)
2. Cc1ccc(C2CC(c3ccccc3)=NN2C(=O)COc2ccc3cc(/C=C4\SC(=O)NC4=O)ccc3c2)cc1 (stereo not shown)

[0.0012, 0.0016]

====

Test target: cdHDAC4wt (Homo sapiens, UniProt P56524)
Construct: consists of 410 amino acids (human HDAC4 T648-T1057) and has a molecular weight of 44.2 kDa; His6-SUMO (cleaved yes)
Protocol notes: Association kinetics (semi continuous enzyme activity assay, kobs vs inhibitor concentration)
Experimental conditions: two step induced fit model; read-out: K1 (equilibrium constant of initial encounter complex)
Measurement kind: Ki (µM)
Answers are plain numbers, in µM.

O=C1NC(=O)/C(=C/c2ccc3cc(OCC(=O)N4N=C(c5ccccc5)CC4c4ccccc4F)ccc3c2)S1 (centres unmarked)	0.65
O=C1NC(=O)/C(=C/c2ccc3cc(OCC(=O)N4N=C(c5ccccc5)CC4c4cccs4)ccc3c2)S1 (centres unmarked)	0.65
Cc1ccc(C2CC(c3ccccc3)=NN2C(=O)COc2ccc3cc(/C=C4\SC(=O)NC4=O)ccc3c2)cc1 (centres unmarked)	3

Need Ki for each of these compounds.
1. O=C1NC(=O)/C(=C/c2ccc(OCC(=O)N3N=C(c4ccccc4)CC3c3ccc(C(F)(F)F)cc3)cc2)S1 (centres unmarked)
2. O=C1NC(=O)/C(=C/c2ccc3cc(OCC(=O)N4N=C(c5ccccc5)CC4c4ccccc4)ccc3c2)S1 (centres unmarked)

1. 1.7
2. 2.4

====

Can you tell me melting point for the items I'm about to list?

Some compounds with known melting point results, for comparison:
Cc1ccc(C=C2SC(=O)N(CC(=O)Nc3nc4c(F)cc(F)cc4s3)C2=O)cc1	295 to 297 °C
Cc1ccc(C=C2SC(=O)N(CC(=O)Nc3nc4c(Cl)cccc4s3)C2=O)cc1	292 to 294 °C
O=C(CN1C(=O)SC(=Cc2ccccn2)C1=O)Nc1nc2c(F)cc(F)cc2s1	294 °C (dec.)
CCOc1ccc2nc(NC(=O)CN3C(=O)SC(=Cc4ccccn4)C3=O)sc2c1	230 °C (dec.)

# query: melting point of entry Cc1ccc(C=C2SC(=O)N(CC(=O)Nc3nc4c(Cl)cccc4s3)C2=O)cc1C
214 to 216 °C

Taken from paper PMC8537711.
